- Study Target: T1, PCSK9-D374Y-BP15-His6 (human, UniProt Q8NBP7 31-692, biotin on the BP15 biotin receiving peptide)
- T1 construct: also called PCSK9-Y; mutant PCSK9
- Test Description: ELISA, bio-PCSK9-Y captured on streptavidin plate
- Experimental: The binding ability of anti-PCSK9 antibodies of the present invention to PCSK9-Y was detected by measuring the amount of antibodies binding to PCSK9-Y (mutant PCSK9, SEQ ID NO: 6) fixed on the ELISA plate. Streptavidin (sigma, CAT#54762) was diluted to 2 μg/ml with PBS and coated into 96-well ELISA plate at 4° C. overnight. […] Finally, the stop solution was added and the OD450 value was measured on the Microplate reader, and then EC50 was calculated. […]
Endpoint Name: EC50 (µg/mL)
One number for each entry, in µg/mL.

Below are worked cases with known answers.
Binder	EC50 [µg/mL]
h001-22 (antibody, human IgG1, V domains shown, Variable regions only; also called h001_VH.1E + h001_VL.1A) VH: QVQLVQSGAEVKKPGASVKVSCKASGYTFNDYWMHWVKQAPGQGLEWIGYINPSSGFTKYHQNFKDKATLTADKSISTAYMELSRLTSDDTAVYYCARQYDYDEDWYFDVWGQGTTVTVSS VL: DIQMTQSPSSLSASVGDRVTITCKSSQSLLNSRTRKNFLAWYQQKPGKAPKLLIYWASTRESGVPDRFSGSGSGTDFTLTISSLQPEDFATYYCKQSFNLFTFGQGTKLEIK	0.0111
h001-8 (antibody, human IgG1, V domains shown, Variable regions only; also called h001_VH.1A + h001_VL.1C) VH: QVQLVQSGAEVKKPGASVKVSCKASGYTFNDYWMHWVRQAPGQGLEWMGYINPSSGFTKYHQNFKDRVTMTRDTSISTAYMELSRLRSDDTAVYYCARQYDYDEDWYFDVWGQGTTVTVSS VL: DIVMSQSPSSLSASVGDRVTITCKSSQSLLNSRTRKNFLAWYQQKPGKSPKLLIYWASTRESGVPDRFSGSGSGTDFTLTISSLQPEDFATYYCKQSFNLFTFGQGTKLEIK	0.0165
h001-12 (antibody, human IgG1, V domains shown, Variable regions only; also called h001_VH.1B + h001_VL.1C) VH: QVQLVQSGAEVKKPGASVKVSCKASGYTFTDYWMHWVRQAPGQGLEWMGYINPSSGFTKYHQNFKDRVTMTRDTSISTAYMELSRLTSDDTAVYYCARQYDYDEDWYFDVWGQGTTVTVSS VL: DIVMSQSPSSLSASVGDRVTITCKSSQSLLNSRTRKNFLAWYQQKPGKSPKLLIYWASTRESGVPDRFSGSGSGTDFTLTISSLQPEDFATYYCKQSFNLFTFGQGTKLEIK	0.0124
h001-6 (antibody, human IgG1, V domains shown, Variable regions only; also called h001_VH.1A + h001_VL.1A) VH: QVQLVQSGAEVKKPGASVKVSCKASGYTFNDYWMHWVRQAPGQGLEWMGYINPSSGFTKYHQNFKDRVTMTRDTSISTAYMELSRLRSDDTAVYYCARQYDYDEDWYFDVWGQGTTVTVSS VL: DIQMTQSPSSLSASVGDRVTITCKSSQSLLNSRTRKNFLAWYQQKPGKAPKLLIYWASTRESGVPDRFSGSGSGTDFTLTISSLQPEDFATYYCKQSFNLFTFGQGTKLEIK	0.0144

Let's switch to this binder now.
input: Quote EC50 reported for h001-15 (antibody, human IgG1, V domains shown, Variable regions only; also called h001_VH.1C + h001_VL.1B) VH: QVQLVQSGAEVKKPGASVKVSCKASGYTFNDYWMHWVRQAPGQGLEWMGYINPSSGFTKYHQNFKDRVTMTRDTSISTAYMELSRLTSDDTAVYYCARQYDYDEDWYFDVWGQGTTVTVSS VL: DIQMSQSPSSLSASVGDRVTITCKSSQSLLNSRTRKNFLAWYQQKPGKAPKLLIYWASTRESGVPDRFSGSGSGTDFTLTISSLQPEDFATYYCKQSFNLFTFGQGTKLEIK please.
output: 0.0178
